meta.source: ChEMBL document CHEMBL1140712

assay: Half life in Sprague-Dawley rat at 5 mg/kg, iv; type: ADME, organism-based; set-up: dose 5 mg/kg, route intravenous; settings: in vivo
readoutLabel: half-life (h)
Please reply with the bare figure in h and do not write the unit itself.

The molecule identified as C[C@H]1CNCCc2ccc(Cl)cc21 [LORCASERIN] registered its half-life at 3.1

---

target: Serotonin 2 receptors; 5-HT2a & 5-HT2c (Homo sapiens) (UniProt P28223+P28335); experiment: Selectivity ratio of pEC50 for human 5HT2A to pEC50 for human 5HT2C
Sequence (P28223 whole entry, looked up, one chain of several): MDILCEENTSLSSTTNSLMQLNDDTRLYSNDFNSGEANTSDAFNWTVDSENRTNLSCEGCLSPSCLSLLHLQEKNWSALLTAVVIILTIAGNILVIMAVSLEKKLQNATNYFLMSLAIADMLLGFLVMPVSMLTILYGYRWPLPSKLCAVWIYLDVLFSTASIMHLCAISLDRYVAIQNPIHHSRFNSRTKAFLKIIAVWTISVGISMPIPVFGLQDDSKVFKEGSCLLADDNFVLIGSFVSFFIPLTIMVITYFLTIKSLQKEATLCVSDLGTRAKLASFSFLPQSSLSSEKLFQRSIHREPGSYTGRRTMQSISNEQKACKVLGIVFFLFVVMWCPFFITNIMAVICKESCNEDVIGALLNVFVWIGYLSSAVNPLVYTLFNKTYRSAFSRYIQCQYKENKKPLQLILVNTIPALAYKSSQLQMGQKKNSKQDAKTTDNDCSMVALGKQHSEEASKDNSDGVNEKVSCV
Hi, to clarify the labels: class 1 covers Selectivity ratio from 1 upward, class 0 covers anything below 1.

Consider the following illustrative entries.
compound	measurementTarget	discreteLabel
COc1cc2c(cc1Cl)CCNCC2C (racemic)	Serotonin 2 receptors; 5-HT2a & 5-HT2c (Homo sapiens) (UniProt P28223+P28335)	class 0
C[C@H]1CNCCc2cc(Cl)c(Cl)cc21	Serotonin 2 receptors; 5-HT2a & 5-HT2c (Homo sapiens) (UniProt P28223+P28335)	class 0
COc1cc2c(cc1Cl)C(C)CNCC2 (single isomer, unassigned; form 2)	Serotonin 2 receptors; 5-HT2a & 5-HT2c (Homo sapiens) (UniProt P28223+P28335)	class 0
CC1CNCCc2c(Cl)cc(Cl)cc21 (stereo not given)	Serotonin 2 receptors; 5-HT2a & 5-HT2c (Homo sapiens) (UniProt P28223+P28335)	class 0
COc1cc2c(cc1Cl)C(C)CNCC2 (single isomer, unassigned; form 1)	Serotonin 2 receptors; 5-HT2a & 5-HT2c (Homo sapiens) (UniProt P28223+P28335)	class 1
CC1CNCCc2ccc(C(F)(F)F)cc21 (racemic)	Serotonin 2 receptors; 5-HT2a & 5-HT2c (Homo sapiens) (UniProt P28223+P28335)	class 1

Could you please find out whether CC1CNCCc2cc(Cl)c(Cl)cc21 (racemic) has Selectivity ratio that meets 1 or exceeds it?
class 0

Could you please find out whether "C[C@@H]1CNCCc2cc(Cl)c(Cl)cc21" has Selectivity ratio that meets 1 or exceeds it?
class 1

---

# key: entry, value: pEC50
target: 5-hydroxytryptamine receptor 2B (Homo sapiens, UniProt P41595); test: Agonist activity at human 5HT2B receptor expressed in HEK293 cells assessed as intracellular IP3 accumulation
Sequence (P41595 whole entry): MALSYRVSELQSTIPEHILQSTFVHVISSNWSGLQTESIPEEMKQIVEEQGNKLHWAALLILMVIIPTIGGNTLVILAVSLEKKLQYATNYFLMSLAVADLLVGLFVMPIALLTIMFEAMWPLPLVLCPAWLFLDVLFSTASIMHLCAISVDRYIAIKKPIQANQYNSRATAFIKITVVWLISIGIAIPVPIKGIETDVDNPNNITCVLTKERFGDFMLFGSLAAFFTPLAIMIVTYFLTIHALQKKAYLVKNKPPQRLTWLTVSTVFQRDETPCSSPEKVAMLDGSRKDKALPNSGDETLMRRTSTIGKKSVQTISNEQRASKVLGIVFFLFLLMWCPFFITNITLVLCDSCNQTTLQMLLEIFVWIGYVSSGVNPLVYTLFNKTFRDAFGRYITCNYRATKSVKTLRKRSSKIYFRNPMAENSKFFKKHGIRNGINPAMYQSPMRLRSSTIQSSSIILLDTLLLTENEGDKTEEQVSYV
Give only the number. pEC50 is defined as minus log10 of concentration in molar units.

A selection of reference data follows.
compound	measurementTarget	pEC50
C[C@@H]1CNCCc2cc(Cl)c(Cl)cc21	5-hydroxytryptamine receptor 2B (Homo sapiens, UniProt P41595)	6.60
COc1ccc2c(c1)C(C)CNCC2 (racemic)	5-hydroxytryptamine receptor 2B (Homo sapiens, UniProt P41595)	5.30
COc1cc2c(cc1Cl)C(C)CNCC2 (single isomer, unassigned; form 1)	5-hydroxytryptamine receptor 2B (Homo sapiens, UniProt P41595)	6.40
CC1CNCCc2cc(Cl)c(Cl)cc21 (racemic)	5-hydroxytryptamine receptor 2B (Homo sapiens, UniProt P41595)	7.30
COc1cc2c(cc1Cl)C(C)CNCC2 (racemic)	5-hydroxytryptamine receptor 2B (Homo sapiens, UniProt P41595)	7.20
CC[C@H]1CNCCc2ccc(Cl)cc21	5-hydroxytryptamine receptor 2B (Homo sapiens, UniProt P41595)	6.60
CC1CNCCc2ccc(Cl)c(F)c21 (racemic)	5-hydroxytryptamine receptor 2B (Homo sapiens, UniProt P41595)	5.60
CC1CNCCc2ccc(Cl)c(Cl)c21 (racemic)	5-hydroxytryptamine receptor 2B (Homo sapiens, UniProt P41595)	5.80
C[C@H]1CNCCc2cc(Cl)c(Cl)cc21	5-hydroxytryptamine receptor 2B (Homo sapiens, UniProt P41595)	7.40
COc1cc2c(cc1Cl)C(C)CNCC2 (single isomer, unassigned; form 2)	5-hydroxytryptamine receptor 2B (Homo sapiens, UniProt P41595)	7.40

The compound identified as "CC[C@@H]1CNCCc2ccc(Cl)cc21" registered its pEC50 at 6.20

The compound identified as CC1CNCCc2cc(Cl)ccc21 (racemic) registered its pEC50 at 6.30

The compound identified as CC1CNCCc2ccc(Br)cc21 (racemic) registered its pEC50 at 5.70

The compound identified as "C[C@@H]1CNCCc2ccc(C(F)(F)F)cc21" registered its pEC50 at 6.10

The compound identified as "C[C@H](N)Cn1ccc2cc(F)c(Cl)cc21" registered its pEC50 at 8.80

The compound identified as C[C@H](N)Cc1cccc(C(F)(F)F)c1 [NORDEXFENFLURAMINE] registered its pEC50 at 7.80

The compound identified as CC1CNCCc2ccc(C(F)(F)F)cc21 (racemic) registered its pEC50 at 6.10

The compound identified as COc1cc2c(cc1Cl)CCNCC2C (racemic) registered its pEC50 at 6.70

---

Molecular target: 5-hydroxytryptamine receptor 2C (Homo sapiens)
Sequence (P28335 whole entry): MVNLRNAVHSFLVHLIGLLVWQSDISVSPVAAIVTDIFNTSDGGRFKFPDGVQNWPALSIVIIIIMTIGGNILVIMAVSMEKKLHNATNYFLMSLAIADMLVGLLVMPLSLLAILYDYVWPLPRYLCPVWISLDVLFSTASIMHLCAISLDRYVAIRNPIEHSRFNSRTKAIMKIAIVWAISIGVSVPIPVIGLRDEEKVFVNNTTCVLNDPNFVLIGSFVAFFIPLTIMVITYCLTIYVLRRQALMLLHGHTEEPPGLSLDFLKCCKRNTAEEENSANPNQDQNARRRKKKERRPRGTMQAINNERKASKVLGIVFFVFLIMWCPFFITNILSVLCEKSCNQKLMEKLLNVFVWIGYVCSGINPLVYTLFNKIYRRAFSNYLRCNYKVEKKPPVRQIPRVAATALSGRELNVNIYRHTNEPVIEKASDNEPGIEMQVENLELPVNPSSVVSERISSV
Assay: Agonist activity at human 5HT2C receptor expressed in HEK293 cells assessed as intracellular IP3 accumulation
readoutLabel: EC50
Form entry: enter the amount, then its unit.

A selection of reference data follows.
molecule	EC50
C[C@H]1CNCCc2ccc(Cl)c(Cl)c21	316 nM
C[C@H](N)Cn1ccc2cc(F)c(Cl)cc21	3.98 nM
COc1cc2c(cc1Cl)C(C)CNCC2 (racemic)	7.94 nM
C[C@H]1CNCCc2ccc(C(F)(F)F)cc21	7.94 nM
CC1CNCCc2ccc(Cl)c(Cl)c21 (racemic)	7.94 nM

The molecule identified as "c1ccc2c(c1)CCNCC2" registered its EC50 at 3160 nM

The molecule identified as CC1CNCCc2c(Cl)cccc21 (racemic) registered its EC50 at 794 nM

The molecule identified as "CC[C@@H]1CNCCc2ccc(Cl)cc21" registered its EC50 at 20 nM

The molecule identified as "C[C@@H]1CNCCc2ccc(Cl)c(Cl)c21" registered its EC50 at 3.16 nM

The molecule identified as COc1cc2c(cc1Cl)C(C)CNCC2 (single isomer, unassigned; form 2) registered its EC50 at 6.31 nM

The molecule identified as CC1CNCCc2ccccc21 (racemic) registered its EC50 at 316 nM

The molecule identified as CC1CNCCc2cccc(Cl)c21 (racemic) registered its EC50 at 794 nM

---

# key: entry, value: Selectivity ratio
target: Serotonin 2 receptors; 5-HT2a & 5-HT2c (Homo sapiens) (UniProt P28223+P28335); test: Selectivity ratio of pEC50 for human 5HT2A to pEC50 for human 5HT2C
Would you mind answering with just the numeric figure?

compound	measurementTarget	Selectivity ratio
C[C@H](N)Cc1cccc(C(F)(F)F)c1 [NORDEXFENFLURAMINE]	Serotonin 2 receptors; 5-HT2a & 5-HT2c (Homo sapiens) (UniProt P28223+P28335)	0.9
CC1CNCCc2cc(Cl)ccc21 (racemic)	Serotonin 2 receptors; 5-HT2a & 5-HT2c (Homo sapiens) (UniProt P28223+P28335)	0.8
C[C@H]1CNCCc2ccc(C(F)(F)F)cc21	Serotonin 2 receptors; 5-HT2a & 5-HT2c (Homo sapiens) (UniProt P28223+P28335)	1.2
CC1CNCCc2ccc(Cl)c(F)c21 (racemic)	Serotonin 2 receptors; 5-HT2a & 5-HT2c (Homo sapiens) (UniProt P28223+P28335)	1.6
C[C@H](N)Cn1ccc2cc(F)c(Cl)cc21	Serotonin 2 receptors; 5-HT2a & 5-HT2c (Homo sapiens) (UniProt P28223+P28335)	1.1

The compound identified as "C[C@@H]1CNCCc2ccc(Cl)c(F)c21" registered its Selectivity ratio at 2.4

The compound identified as CC1CNCCc2ccc(Br)cc21 (racemic) registered its Selectivity ratio at 1.7

The compound identified as "CC[C@@H]1CNCCc2ccc(Cl)cc21" registered its Selectivity ratio at 1.2

---

species: Homo sapiens; experiment: Selectivity ratio of pEC50 for human 5HT2B to pEC50 for human 5HT2C
Selectivity ratio under 2 gets met, anything at or over 2 gets not met.

Consider the following illustrative entries.
compound	discreteLabel
CC[C@H]1CNCCc2ccc(Cl)cc21	met
CC1CNCCc2cc(Cl)c(Cl)cc21 (racemic)	met
COc1cc2c(cc1Cl)C(C)CNCC2 (racemic)	met
C[C@H]1CNCCc2cc(Cl)c(Cl)cc21	met
CC1CNCCc2ccc(C(F)(F)F)cc21 (racemic)	not met
COc1cc2c(cc1Cl)CCNCC2C (racemic)	met
CC1CNCCc2ccc(Cl)c(Cl)c21 (racemic)	not met
CC1CNCCc2cc(Cl)ccc21 (racemic)	met

State whether 2 exceeds Selectivity ratio recorded for COc1cc2c(cc1Cl)C(C)CNCC2 (single isomer, unassigned; form 1) .
met

State whether 2 exceeds Selectivity ratio recorded for "Clc1ccc2c(c1)CCNCC2" .
met

State whether 2 exceeds Selectivity ratio recorded for "C[C@@H]1CNCCc2ccc(C(F)(F)F)cc21" .
met

State whether 2 exceeds Selectivity ratio recorded for "C[C@H]1CNCCc2ccc(C(F)(F)F)cc21" .
met

State whether 2 exceeds Selectivity ratio recorded for "C[C@H](N)Cc1cccc(C(F)(F)F)c1" .
met

State whether 2 exceeds Selectivity ratio recorded for "C[C@@H]1CNCCc2ccc(Cl)c(F)c21" .
not met

State whether 2 exceeds Selectivity ratio recorded for CC1CNCCc2cc(F)c(Cl)cc21 (racemic) .
met

State whether 2 exceeds Selectivity ratio recorded for "C[C@@H]1CNCCc2ccc(Cl)c(Cl)c21" .
not met

State whether 2 exceeds Selectivity ratio recorded for "C[C@H](N)Cn1ccc2cc(F)c(Cl)cc21" .
met

State whether 2 exceeds Selectivity ratio recorded for CC1CNCCc2ccc(Cl)c(F)c21 (racemic) .
not met
